biological target: MATE2‐K (Homo sapiens); type: cell-based; settings: In vitro Ki of pyrimethamine, substrate metformin 10 μM, 2 min, HEK293
Sequence (Q86VL8 1-566 isoform Q86VL8-3): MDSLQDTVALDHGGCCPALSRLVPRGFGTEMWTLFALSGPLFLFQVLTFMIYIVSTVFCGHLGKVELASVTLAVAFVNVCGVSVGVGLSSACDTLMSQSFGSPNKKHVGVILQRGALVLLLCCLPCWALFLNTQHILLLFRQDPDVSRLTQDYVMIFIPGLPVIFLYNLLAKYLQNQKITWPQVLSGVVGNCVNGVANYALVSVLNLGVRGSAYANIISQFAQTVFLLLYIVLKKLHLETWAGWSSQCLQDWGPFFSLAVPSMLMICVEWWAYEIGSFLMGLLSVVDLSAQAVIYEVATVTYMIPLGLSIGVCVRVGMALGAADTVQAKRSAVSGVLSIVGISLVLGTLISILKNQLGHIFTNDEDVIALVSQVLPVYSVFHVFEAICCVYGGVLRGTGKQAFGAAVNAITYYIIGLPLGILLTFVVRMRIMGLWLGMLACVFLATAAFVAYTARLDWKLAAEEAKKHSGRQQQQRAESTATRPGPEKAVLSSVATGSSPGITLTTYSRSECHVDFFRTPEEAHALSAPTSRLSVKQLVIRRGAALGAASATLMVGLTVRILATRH
MEASUREMENT KIND: Ki (nM)
Number only, in nM; omit the unit.

Entry CCc1nc(N)nc(N)c1-c1ccc(Cl)cc1 [pyrimethamine] — recorded Ki = 94.1

###

Molecular target: MATE1 (Homo sapiens, UniProt Q96FL8)
Sequence (Q96FL8 1-570): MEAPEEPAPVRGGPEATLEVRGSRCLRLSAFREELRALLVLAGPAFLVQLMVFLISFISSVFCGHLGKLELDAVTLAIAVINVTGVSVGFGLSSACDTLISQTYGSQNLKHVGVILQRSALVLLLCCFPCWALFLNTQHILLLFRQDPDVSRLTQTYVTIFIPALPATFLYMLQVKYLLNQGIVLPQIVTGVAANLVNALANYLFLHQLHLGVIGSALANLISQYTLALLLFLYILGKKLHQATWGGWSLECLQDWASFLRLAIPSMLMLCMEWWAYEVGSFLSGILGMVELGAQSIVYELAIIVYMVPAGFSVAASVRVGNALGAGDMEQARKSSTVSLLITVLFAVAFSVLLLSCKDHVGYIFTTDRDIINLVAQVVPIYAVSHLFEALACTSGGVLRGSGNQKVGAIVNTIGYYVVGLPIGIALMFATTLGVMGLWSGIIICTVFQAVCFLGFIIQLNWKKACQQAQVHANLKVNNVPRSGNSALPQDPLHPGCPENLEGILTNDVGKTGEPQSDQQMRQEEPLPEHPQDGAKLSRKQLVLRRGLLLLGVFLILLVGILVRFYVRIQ
Format: cell-based
Conditions: In vitro Ki of pyrimethamine, MATE1, substrate 1‐NMN 10 μM, 2 min, HEK293
MEASUREMENT KIND: Ki (nM)
# number only, unit nM dropped from output

// recorded Ki for CCc1nc(N)nc(N)c1-c1ccc(Cl)cc1 [pyrimethamine] : 125

###

Target: UniProtKB O15244
Sequence (O15244 1-555): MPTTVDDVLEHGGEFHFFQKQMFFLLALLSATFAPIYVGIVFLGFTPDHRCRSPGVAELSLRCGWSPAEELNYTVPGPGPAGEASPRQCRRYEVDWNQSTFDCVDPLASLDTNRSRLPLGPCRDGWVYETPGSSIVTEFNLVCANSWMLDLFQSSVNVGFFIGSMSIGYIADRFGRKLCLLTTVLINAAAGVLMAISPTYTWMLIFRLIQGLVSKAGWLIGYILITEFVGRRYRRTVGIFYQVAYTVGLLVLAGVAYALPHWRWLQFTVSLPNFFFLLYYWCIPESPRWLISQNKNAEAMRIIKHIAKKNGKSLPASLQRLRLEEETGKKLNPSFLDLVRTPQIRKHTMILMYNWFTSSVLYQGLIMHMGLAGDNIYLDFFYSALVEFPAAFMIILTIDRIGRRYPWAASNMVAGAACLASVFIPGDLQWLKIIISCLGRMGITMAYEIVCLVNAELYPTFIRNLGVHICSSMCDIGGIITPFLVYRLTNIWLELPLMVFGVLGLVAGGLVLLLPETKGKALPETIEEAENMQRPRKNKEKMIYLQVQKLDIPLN
Assay type: cell-based
Settings: In vitro Ki of pyrimethamine, OCT2, substrate m1A 100 μM, 30 min, HEK293
MEASUREMENT KIND: pKi
Schema: pKi number; meaning minus log10 of the concentration expressed in molar units.

Entry CCc1nc(N)nc(N)c1-c1ccc(Cl)cc1 — recorded pKi = 6.33
